// LD50 lookup, one value per entry
Assay: Acute toxicity (lethal dose 50) in the mouse
Settings: in vivo, oral (P.O.), 5 males and 5 females per dose, read-out: LD 50 P.O.
Excerpt: The acute toxicity of the deriatives of the invention were studied by oral administration (P.O) to the mouse (10 animals, 5 males and 5 females per dose) and calculation of the lethal dose 50 (LD 50) in accordance with the method of Litchfield and Wilcoxon (J. Pharmacol., 96, 99-113 (1949)). Table 1 gives the LD 50 values of the derivatives of the invention. In certain cases, the LD 50 was also studied after intraperitoneal injection (I.P.) of the derivatives.
// units = mg/kg; emit number, no label

Known LD50 results, listed for orientation:
Cc1c(-c2ccccc2)n[nH]c1OCCN1CCOCC1 [Example 4]; 750
Cc1c(-c2ccc(Cl)cc2)n[nH]c1OCCN1CCCC1 [Example 18]; 750
Clc1ccc(-c2cc(OCCCN3CCCCC3)[nH]n2)cc1 [Example 3]; 700

Data request: Using the record for c1ccc(-c2cc(OCCN3CCOCC3)[nH]n2)cc1 [Example 5, 3-Phenyl-5-morpholinoethoxy-pyrazole] , report its LD50.
Data returned: 1000
